Just for reference, PubChem BioAssay is where these values come from.

Experiment: binders of probe aHhip on microarray, primary screen, stem cell growth factor project, biochemical, small-molecule microarray, fluorescence 635/667 (AID 1087);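 also: score merges spot fluorescence at 667nm with spot signal to noise ratio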
Conditions: higher = more signal
For each of the compounds below, state its composite z-score.
No unit in the answer, please; the number alone is enough.

Challenge: Name the reported composite z-score value associated with the compound `CC(C)NC(=O)[C@@H]1c2ccccc2C(=O)N(Cc2ccccc2)[C@H]1c1ccc(CO)cc1`
Response given: -0.191

Challenge: Try the compound `O=C1O[C@H](c2ccccc2)[C@H](c2ccccc2)N2[C@H]1[C@@H](C(=O)Nc1nc3ccccc3s1)[C@]1(C(=O)Nc3ccccc31)[C@H]2c1ccc(O)cc1`
Response given: -0.149

Challenge: Ok, now CCN(CC)c1ccc(N2CC=CC34O[C@@H]5/C=C\CCCOC(=O)C5[C@H]3C(=O)N(C(CO)C(C)C)[C@@H]4C2=O)cc1 (stereo partly drawn)
Response given: 0.0142

Challenge: Field entry: `CCCC[C@H]1OB(O)C[C@H]2C1=C(C)C[C@H]1C(=O)N(Cc3ccccc3)C(=O)[C@H]12`
Response given: 0.312

Challenge: Now the same for `COCCOC(=O)N1C(=O)[C@@]2(c3cc(C#Cc4ccc(OC)cc4)ccc31)[C@H](C(=O)N1CCN(c3ncccn3)CC1)[C@H]1C(=O)O[C@H](c3ccccc3)[C@H](c3ccccc3)N1[C@@H]2c1ccc(O)cc1`
Response given: -0.0994

Challenge: Another: `COCCOC(=O)N1C(=O)[C@@]2(c3cc(C#CCC(C(=O)OC)C(=O)OC)ccc31)[C@H](c1ccc(O)cc1)N1[C@H](c3ccccc3)[C@H](c3ccccc3)OC(=O)[C@H]1[C@@H]2C(N)=O`
Response given: -0.124

Challenge: Cool, now CC(C)(C)N1CC=CC23O[C@@H]4C=CCOC(=O)[C@@H]4[C@H]2C(=O)N(CCCCCO)[C@@H]3C1=O (stereo partly drawn)
Response given: -0.339

Challenge: Would you mind doing [N-]=[N+]=NCc1ccccc1C[C@@]1(C(=O)NCC(O)CO)N=C(c2ccc(OCCCO)cc2)O[C@@H]1c1ccccc1CN=[N+]=[N-] (stereo partly drawn) as well?
Response given: -0.115

Challenge: Okay, and CN1CCC(CCCO)=CC1c1ccc(CN2CCCC2)cc1 (stereo not drawn) ?
Response given: -0.0237

Challenge: Next compound up: `C=CCOC(=O)[C@@H]1[C@H]2C(=O)O[C@H](c3ccccc3)[C@H](c3ccccc3)N2[C@H](c2ccc(OCCOC(=O)[C@@H]3C[C@@H]4C(=O)NCC(=O)N4[C@@H]3c3cccc(OCCO)c3)cc2)[C@@]12C(=O)Nc1ccc(I)cc12`
Response given: -0.0391

Challenge: `CCOC(=O)C[C@H]1[C@H](OC(=O)c2ccccc2-c2ccccc2)[C@@H](NC(=O)c2ccc3ccccc3c2)c2cc(OCCCO)ccc2N1C(=O)c1ccc2ccccc2n1` , same question.
Response given: -0.0373

Challenge: Try this compound next: `CCOC(=O)C[C@H]1[C@H](OC(=O)c2ccc(-c3ccccc3)cc2)[C@@H](NC(=O)Cc2ccc(OC)cc2)c2cc(OCCCO)ccc2N1C(=O)c1ccc2ccccc2n1`
Response given: -0.0645

Challenge: Note, next up: `C=CCN1C(=O)[C@]2(O[C@H](CCO)[C@@H]([Si](C)(C)c3ccc(OC)cc3)[C@@H]2C)c2cc(NC(=O)[C@H](C)O)ccc21`
Response given: -0.216
